- TARGET_SYSTEM: dopamine D2 receptor (Rattus norvegicus)
- Construct: from tissue; host or cells: rat corpus striatum, membrane fractions
- Sequence (P61169 whole entry): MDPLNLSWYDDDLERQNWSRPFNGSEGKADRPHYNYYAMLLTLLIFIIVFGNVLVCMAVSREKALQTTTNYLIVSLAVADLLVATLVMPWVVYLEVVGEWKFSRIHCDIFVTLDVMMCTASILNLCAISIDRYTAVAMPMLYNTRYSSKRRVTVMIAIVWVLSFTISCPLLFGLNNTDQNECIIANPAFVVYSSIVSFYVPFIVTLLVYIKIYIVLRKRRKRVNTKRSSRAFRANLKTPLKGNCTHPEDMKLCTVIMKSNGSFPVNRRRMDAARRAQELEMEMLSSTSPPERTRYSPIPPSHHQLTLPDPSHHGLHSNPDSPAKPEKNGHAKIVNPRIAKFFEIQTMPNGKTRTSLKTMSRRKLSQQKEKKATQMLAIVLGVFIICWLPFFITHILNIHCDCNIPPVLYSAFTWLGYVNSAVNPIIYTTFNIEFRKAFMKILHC
- PROTOCOL_TEXT: Dopamine D2 receptor binding assay (in vitro), [3H] raclopride
- CONDITIONS: at the concentration of 0.01 μM; Table 3; read-out: Antipsychotic activity (% inhibition), inhibition of [3H] raclopride binding to D2 receptors
So I've got a bunch of compounds here, and I need their inhibition at 0.01 µM values.

Batch request: inhibition at 0.01 µM for each of the following compounds.
1. O=C1[C@@H]2[C@H]3CC[C@H](C3)[C@@H]2C(=O)N1C[C@@H]1C[C@H]1CN1CCN(c2ncccn2)CC1 (relative stereo) [compound 163]
2. O=C1[C@@H]2[C@H]3CC[C@H](C3)[C@@H]2C(=O)N1C1CCCC(CN2CCN(c3nsc4ccccc34)CC2)C1 (stereo partly shown) [Compound No. 106]

OUT:
["11%", "90%"]

Below are 2 compounds. Give each one its inhibition at 0.01 µM.
1. O=C1[C@H]2CCCC[C@H]2C(=O)N1C[C@@H]1C[C@H]1CN1CCN(c2nsc3ccccc23)CC1 (relative stereo) [Compound No. 107]
2. O=C(c1ccc(F)cc1)C1CCN(C[C@@H]2C[C@H]2CN2C(=O)[C@H]3CCCC[C@H]3C2=O)CC1 (relative stereo) [compound 161]

OUT:
1: 71%; 2: 24%
